target.or.system: T1, mouse TMEM106B (mouse, UniProt Q80X71 2-275)
T1 construct: on transiently transfected HEK293 cells, or natively expressed on mouse Neuro2a cells; also called moTMEM106B; murine TMEM106B
assay: FACS Neuro2a;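 also: flow cytometry of cells stained with antibody or hybridoma supernatant (purified antibody at 10 µg/ml) for 1 h on ice, propidium iodide–positive dead cells gated out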
The reader will find reported MFI values listed item by item below.
Form: value (number only, do not type unit).

// known answers, use as guide
anti-TMEM106B antibody TM-37 (antibody, V domains shown) VH: QVQLQQSGAELAKPGASVKLSCKASGYTFTSYWMHWVKQRPGQGLEWIGYVNPSSGYTKNNQKFKDKVTLTADKSSSTAYMQLSSLTYEDSAVYYCAREGGSISDWYFDVWGTGTTVTVSS VL: DIVMTQAAPSVPVTPGESVSISCRSSKSLLHSNGNTYSYWFLQRPGQSPQLLIYRMSNLASGVPDRFSGSGSGTAFTLRISRVEAEDVGVYYCMQHLEYPYTFGGGTKLEIK ... 208
anti-TMEM106B antibody TM-6 (antibody, V domains shown, mouse IgG from hybridoma) VH: QVQLQQSGAELVKPGASVKLSCKASGYTFTEYTIHWVKQRSGQGLEWIGWFYPGSTYIDYNEKFKDKATLTADKSSSTVYLELSRLTSEDSAVYFCARHEEDYSNWFPFWGQGTLVTVSA VL: DIQMSQSSSYLSVSLGGRVTITCKASDHINNWLAWYQQKPGNAPRLLISGATSLETGVPSRFSGSGSGKDYTLSITSLQTEDVATYYCQQYWSSPYTFGGGTKLEIK ... 371

Kindly consider the entry below.
-- ask Can you share its MFI? I mean this binder: anti-TMEM106B antibody TM-22 (antibody, V domains shown) VH: QVQLQQSGPELVKPGASVKISCKASGYRFTSYYIHWVKQRPGQGLEWIGWIYPGNGITNYNEKFKGKATLTADTSSSTAYMQLSSLTSEDSAVYYCASPYYGIRNCYFDVWGTGTTVTVSS VL: DVLMTQTPLSLPVSLGDHASISCRSGQSIVHSNGNTYLEWYLQKPGQSPKLLIYKVSNRFSGVPDRFSGSGSGTDFTLKISRVEAEDLGIYYCFQGSHVPWTFGGGTKLEIK
-- reply 400
